SPOT peptide array binding signal intensity reference
- TARGET_OF_ASSAY: CaCyk3
- ASSAY_SUMMARY: SPOT peptide array binding signal intensity (averaged, normalized) (arbitrary units (background-subtracted, floor 0; scale differs between SH3 domains)); higher = stronger binding of the SH3 domain to the peptide
Give the figure by itself; no unit, no explanation.

Consider the reported SPOT peptide array binding signal intensity for these binders:
IPSRPAPKPPSSASA: 190
RRSKSLPTTPGIRSG: 17
ATNVPVAPPPPPASL: 4
ISNFVPPNLPMRRFK: 47

stdin: Give the measured SPOT peptide array binding signal intensity of "APPPPPRRATPEKKP" .
stdout: 18.5

stdin: Give the measured SPOT peptide array binding signal intensity of "NMLKKKPLKKPLKRF" .
stdout: 18

stdin: Give the measured SPOT peptide array binding signal intensity of "NSVPIMPTLPPRPYI" .
stdout: 120

stdin: Give the measured SPOT peptide array binding signal intensity of "DRIRMFIRFPKFLLE" .
stdout: 30.5

stdin: Give the measured SPOT peptide array binding signal intensity of "KRKRRLPVSEDTNTK" .
stdout: 24

stdin: Give the measured SPOT peptide array binding signal intensity of "NSMRPPLLIPAATTK" .
stdout: 5.5

stdin: Give the measured SPOT peptide array binding signal intensity of "QLMKNLPKIPLLNDI" .
stdout: 4
